Every entry's value here was drawn from ChEMBL document CHEMBL5303573.

- assay.name: The drug is tested on Parabacteroides merdae strain: ATCC43184 for biotransformation. The drug concentrations were measured before and after a 12-h incubation by liquid-chromatography-coupled mass spectrometry (LC–MS)
- test.conditions: 2 µM
measured.parameter: Bacterial Biotransformation

Worked examples, 6 compounds total:
{"columns": ["compound", "result"],
 "data": [
  ["COc1ccc2c(c1OC)C(=O)O[C@@H]2[C@H]1c2c(cc3c(c2OC)OCO3)CCN1C", "Compound metabolized"],
  ["CC(=O)OCC(=O)[C@@]12N=C(C)O[C@@H]1C[C@H]1[C@@H]3CCC4=CC(=O)C=C[C@]4(C)[C@H]3[C@@H](O)C[C@@]12C", "Compound metabolized"],
  ["COC(=O)[C@H](c1ccccc1Cl)N1CCc2sccc2C1.O=S(=O)(O)O [CLOPIDOGREL BISULFATE]", "Compound metabolized"],
  ["COc1ccccc1OCC(O)CN1CCN(CC(=O)Nc2c(C)cccc2C)CC1 (configuration not stated)", "Compound NOT metabolized"],
  ["CCOC(=O)[C@H](CCc1ccccc1)N[C@@H](C)C(=O)N1CCC[C@H]1C(=O)O.O=C(O)/C=C\\C(=O)O [ENALAPRIL MALEATE]", "Compound NOT metabolized"],
  ["CCOC(=O)[C@H](CCc1ccccc1)N[C@H]1CCc2ccccc2N(CC(=O)O)C1=O", "Compound metabolized"]
]}

Now look at this entry.
Ask: Give the value of Bacterial Biotransformation reported for the following: `CNC(=C[N+](=O)[O-])NCCSCc1ccc(CN(C)C)o1`
Reply: Compound NOT metabolized
